system: A549 cell lines (lung cancer cell lines); assay: Oxygen Consumption Rate (OCR) of cells, corrected for cell viability (Cyquant); assay type: cell-based; conditions: Homo sapiens, A549, 24 h, read-out: OCR IC50
IC50 strictly less than 1 µM = Satisfied. Otherwise Not satisfied.

Examples from the recorded data:
• Nc1cc[n+](CCc2ccccc2)cc1 [Example 1, 4-Amino-1-phenethylpyridinium chloride] = Not satisfied
• Nc1cc[n+](CCC2CCCCC2)cc1 = Satisfied

[ask] Is the reported IC50 for `Nc1cc[n+](Cc2ccc[se]2)cc1` strictly below 1 µM?
[reply] Not satisfied

[ask] Item `Nc1cc[n+](Cc2ccc[se]2)nc1` : IC50 beneath 1 µM, strictly?
[reply] Not satisfied

* * *

system: SK-MEL-28 cells; experiment: Inhibitory effect of cancer cell proliferation, MTT; assay type: cell-based; conditions: Homo sapiens, SK-MEL-28, 72 h, read-out: SK-MEL-28 0.75 mM glucose Cell viability (IC50 μM)
property label: log10(IC50) (log10 of the value in µM)
Hi team, quick reminder: these entries are log10 of IC50 (µM).

• Nc1cc[n+](CCc2ccccc2)cc1 [Example 1, 4-Amino-1-phenethylpyridinium chloride] = 1.25

[ask] Consider the compound `Nc1cc[n+](Cc2ccc[se]2)nc1` and give its measured log10(IC50).
[reply] 1.76

[ask] Name the recorded log10(IC50) for `Nc1cc[n+](CCC2CCCCC2)cc1` .
[reply] 0.23

[ask] Given the entry `c1c[se]c(C[n+]2ccc(N3CCCC3)cc2)c1` , report its measured log10(IC50).
[reply] 0.41

[ask] // query log10(IC50) value for entry `Nc1cc[n+](Cc2ccc[se]2)cn1`
[reply] 1.87

[ask] Returns the measured log10(IC50) for the input compound. Input: `Nc1cc[n+](Cc2ccc[se]2)cc1`
[reply] 1.15
